test: Inhibition of AP-1 basal transcriptional activity in mouse JB6 Cl41 cells at 6.25 uM after 12 hrs by luciferase reporter gene assay; assay type: functional; conditions: JB6 Cl41, 12 h
inhibition at 6.25 µM values for the compounds below.
readout_kind: inhibition at 6.25 µM

1. CCCCOC(=O)CC[C@@]1(C)[C@H]2Cc3c(c(C)c4c(c3OC)C(=O)OC4)O[C@@]2(C)CC[C@H]1C(C)(C)O :: 34%
2. CCCCOC(=O)CC[C@@]1(C)[C@H]2Cc3c(c(C)c4c(c3OC)C(=O)OC4)O[C@@]2(C)C[C@@H](O)[C@H]1C(C)(C)O :: 36.1%
3. COc1c2c(c(C)c3c1C(=O)OC3)O[C@@]1(C)CC[C@H]3C(C)(C)OC(=O)CC[C@]3(C)[C@H]1C2 :: 36.3%
4. COc1c2c(c(C)c3c1C(=O)OC3)O[C@@]1(C)C[C@@H](O)[C@H]3C(C)(C)OC(=O)CC[C@]3(C)[C@H]1C2 :: 27.6%

###

log10 IC50 values for the compounds below.
assay: Inhibition of endo-1,3-beta-D-glucanase in Pseudocardium sachalinensis preincubated for 15 mins by Nelson method
Counter-ions that a name gives are not always drawn.
readout_kind: log10 IC50 (log10 of the value in µM)

1. CCCCOC(=O)CC[C@@]1(C)[C@H]2Cc3c(c(C)c4c(c3OC)C(=O)OC4)O[C@@]2(C)C[C@@H](O)[C@H]1C(C)(C)O :: -0.70
2. CCCCOC(=O)CC[C@@]1(C)[C@H]2Cc3c(c(C)c4c(c3OC)C(=O)OC4)O[C@@]2(C)CC[C@H]1C(C)(C)O :: -1.00
3. COc1c2c(c(C)c3c1C(=O)OC3)O[C@@]1(C)CC[C@@H](C(C)(C)O)[C@@](C)(CCC(=O)O)[C@H]1C2 :: -2.00
4. COc1c2c(c(C)c3c1C(=O)OC3)O[C@@]1(C)C[C@@H](O)[C@H]3C(C)(C)OC(=O)CC[C@]3(C)[C@H]1C2 :: 0.30
5. COc1c2c(c(C)c3c1C(=O)OC3)O[C@@]1(C)C[C@@H](O)[C@]34O[C@](O)(CC[C@]3(C)[C@H]1C2)OC4(C)C :: 2.40
6. COc1c2c(c(C)c3c1C(=O)OC3)O[C@@]1(C)CC[C@H]3C(C)(C)OC(=O)CC[C@]3(C)[C@H]1C2 :: -2.00
7. COc1c2c(c(C)c3c1C(=O)OC3)O[C@@]1(C)C[C@@H](O)[C@@H](C(C)(C)O)[C@@](C)(CCC(=O)O)[C@H]1C2 :: 0.00
8. C=C(C)[C@@H]1[C@H](O)C[C@]2(C)Oc3c(C)c4c(c(OC)c3C[C@@H]2[C@]1(C)CCC(=O)O)C(=O)OC4 :: -0.92
9. C=C(C)[C@@H]1CC[C@]2(C)Oc3c(C)c4c(c(OC)c3C[C@@H]2[C@]1(C)CCC(=O)O)C(=O)OC4 :: 3.00
10. CC(CC[C@@H](C)[C@H]1CC[C@H]2[C@@H]3C[C@H](OS(=O)(=O)O)[C@H]4C[C@H](OS(=O)(=O)O)[C@@H](OS(=O)(=O)O)C[C@]4(C)[C@H]3CC[C@]12C)C(C)(C)C (stereo not given in full) [HALISTANOL SULFATE] :: 2.11
